Assay: Pharmacokinetics of CBP501, single agent study
Type: in vivo, human
Settings: human, in vivo, 9.57 mg/m2, single agent, 9.57 mg/m^2, Day 15, mean, N 2
Counter-ions that a name gives are not always drawn. Square brackets hold non-standard residues; d marks the D form. Peptide text beside a SMILES is read from it. dPhe(F5) = N[C@H](Cc1c(F)c(F)c(F)c(F)c1F)C(=O)O; dBpa = N[C@H](Cc1ccc(C(=O)c2ccccc2)cc1)C(=O)O; dCha = N[C@H](CC1CCCCC1)C(=O)O
READOUT_LABEL: Cmax (ng/mL)

MOLECULE	OBSERVED
N=C(N)NCCC[C@@H](NC(=O)[C@@H](CCCNC(=N)N)NC(=O)[C@@H](CCC(N)=O)NC(=O)[C@@H](CCCNC(=N)N)NC(=O)[C@@H](CCCNC(=N)N)NC(=O)[C@@H](CCCNC(=N)N)NC(=O)[C@@H](CC1CCCCC1)NC(=O)[C@@H](Cc1c(F)c(F)c(F)c(F)c1F)NC(=O)[C@@H](CO)NC(=O)[C@@H](Cc1c[nH]c2ccccc12)NC(=O)[C@@H](CO)NC(=O)[C@H](N)Cc1ccc(C(=O)c2ccccc2)cc1)C(=O)O [CBP501, acetate salt] (H-[dBpa][dS][dW][dS][dPhe(F5)][dCha][dR][dR][dR][dQ][dR][dR]-OH)	2410
